assay.system: recombinant human MMP13 catalytic domain (CD) (Homo sapiens, UniProt P45452)
Construct: catalytic domain (CD) construct encompassing residues 20-274 (SWISS-PROT P45452)
measurement.notes: MMP-13 catalytic domain FRET enzyme assay
experimental.conditions: recombinant human MMP-13 catalytic domain
This section presents compounds with their documented IC50 values.

{"compound": "COc1cc(CNC(=O)c2cc(C3=NOC(c4ccccc4)C3)c(=O)n(C)n2)ccc1F (centres unmarked)", "reported.result": "0.01 to 0.1 µM"}
{"compound": "Cc1nc(C(=O)NCc2ccc3c(c2)NC(=O)CO3)cc(C2=NOC([C@H]3CC[C@H](NC(=O)[C@H](C)O)CC3)C2)n1 (some centres unmarked)", "reported.result": "< 0.01 µM"}
{"compound": "Cc1nc(C(=O)NCc2ccc3c(c2)NC(=O)CO3)cc(C2=NOC(c3ccc(=O)n(C)c3)C2)n1 (centres unmarked)", "reported.result": "< 0.01 µM"}
{"compound": "CC(=O)N[C@H]1CC[C@H](C2CC(c3cc(C(=O)NCc4ccn(C)c(=O)c4)nc(C)n3)=NO2)CC1 (some centres unmarked)", "reported.result": "> 1 µM"}
{"compound": "Cc1nc(C(=O)NCc2ccc(F)c(Cl)c2)cc(C2=NOC(C3CCN(C(=O)CO)CC3)C2)n1 (centres unmarked)", "reported.result": "0.01 to 0.1 µM"}

Please report the recorded IC50 for Cc1nc(C(=O)NCc2ccc3oc(C)nc3c2)cc(C2=NO[C@H]([C@H]3CO[C@H](CO)CO3)C2)n1 .
0.01 to 0.1 µM

Any idea what IC50 was measured for COc1cc(CNC(=O)c2cc(C3=NOC(c4ccc(=O)n(C)n4)C3)nc(C)n2)ccc1F (centres unmarked) ?
0.01 to 0.1 µM

Tell me the measured IC50 of COc1cc(CNC(=O)c2cc(C3=NOC(c4ccc(CO)cn4)C3)nc(C)n2)ccc1F (centres unmarked) , please.
< 0.01 µM
